# testSystem: Full-length, GST-tagged, human CaMKIIδ (Homo sapiens, UniProt Q13557)
# Construct: Full-Length, Glutathione-S-Transferase(GST)-Tagged, Human CaMKIIδ was purchased from Carna Biosciences; purchased Carna Biosciences 02-111
# Sequence (Q13557 1-478 isoform Q13557-12): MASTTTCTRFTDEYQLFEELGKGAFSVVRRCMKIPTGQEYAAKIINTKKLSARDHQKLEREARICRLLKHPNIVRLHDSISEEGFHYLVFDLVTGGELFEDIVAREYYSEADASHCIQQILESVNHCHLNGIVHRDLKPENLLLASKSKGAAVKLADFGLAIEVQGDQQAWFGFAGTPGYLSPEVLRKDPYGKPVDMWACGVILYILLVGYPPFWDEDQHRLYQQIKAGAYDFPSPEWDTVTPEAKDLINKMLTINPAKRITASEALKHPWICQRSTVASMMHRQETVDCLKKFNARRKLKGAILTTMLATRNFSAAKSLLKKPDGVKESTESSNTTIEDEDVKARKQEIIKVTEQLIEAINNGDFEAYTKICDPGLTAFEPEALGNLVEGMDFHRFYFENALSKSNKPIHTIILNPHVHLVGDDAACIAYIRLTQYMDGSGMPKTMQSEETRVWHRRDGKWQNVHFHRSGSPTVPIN
# assaySummary: CaMKIIδ binding assay (TR-FRET with BODIPY-labeled probe ligand)
# runConditions: Table 2; CaMKIIδ binding assay, activity given as class A/B/C
readoutType: IC50

Recorded IC50 of C[C@@H](Cn1cnnn1)Oc1cc(-c2cnc(Nc3cn(C4CCN(C5CCOCC5)CC4)nc3OCC(F)F)nc2)ccc1Cl [Example 792] , please.
< 10 nM

Please answer likewise for C[C@@H](Cn1cnnn1)Oc1cc(-c2cnc(Nc3cn([C@H]4CC[C@@H](N5CCOCC5)CC4)nc3OCC(F)(F)F)nc2)ccc1Cl [Example 780]
< 10 nM

Please answer likewise for C[C@@H](Cn1cnnn1)Oc1cc(-c2cnc(Nc3cn([C@@H]4C[C@H]5CC[C@@H](C4)N5C4CC4)nc3C(F)(F)F)nc2)ccc1Cl [Example 757]
< 10 nM

Please answer likewise for C[C@@H](Cn1cccn1)Oc1cc(-c2cnc(Nc3cn([C@H]4CC[C@H](N5CCOCC5)CC4)nc3OCC(F)(F)F)nc2)ccc1C#N [Example 798]
< 10 nM

Please answer likewise for C[C@H](CO)n1cc(Nc2ncc(-c3ccc(Cl)c(O[C@@H](C)Cn4cnnn4)c3)cn2)c(OCC(F)(F)F)n1 [Example 787]
< 10 nM

Please answer likewise for C[C@@H](Cn1cnnn1)Oc1cc(-c2cnc(Nc3cn([C@H]4C[C@@H](N5CCOCC5)C4)nc3OCC(F)F)nc2)ccc1Cl [Example 849]
< 10 nM

Please answer likewise for Cc1noc(C)c1Nc1ncc(-c2ccc(Cl)c(O[C@@H](C)Cn3cnnn3)c2)cn1 [Example 747]
10 to 100 nM

Please answer likewise for C[C@@H](Cn1cnnn1)Oc1cc(-c2cnc(Nc3cn(CC4(CO)COC4)nc3C(F)(F)F)nc2)ccc1Cl [Example 732]
10 to 100 nM

Please answer likewise for C[C@@H](Cn1cnnn1)Oc1cc(-c2cnc(Nc3cn(CC(F)(F)F)nc3OCC(F)(F)F)nc2)ccc1Cl [Example 756]
10 to 100 nM

Please answer likewise for COC[C@@H](C)n1cc(Nc2ncc(-c3ccc(Cl)c(O[C@@H](C)Cn4cnnn4)c3)cn2)c(OCC(F)(F)F)n1 [Example 796]
< 10 nM

Please answer likewise for C[C@@H](Cn1cnnn1)Oc1cc(-c2cnc(Nc3cn(C4CCC(CC(=O)O)CC4)nc3C(F)(F)F)nc2)ccc1Cl (some centres unmarked) [Example 851]
≥ 100 nM

Please answer likewise for C[C@@H](Cn1cnnn1)Oc1cc(-c2cnc(Nc3cn(C4CCN(C5CC5)CC4)nc3OCC(F)(F)F)nc2)ccc1Cl [Example 794]
< 10 nM

Please answer likewise for Cc1ccc(-c2cnc(Nc3cn([C@H]4CC[C@H](N5CCOCC5)CC4)nc3OCC(F)(F)F)nc2)cc1O[C@@H](C)Cn1cnnn1 [Example 811]
< 10 nM

Please answer likewise for C[C@@H](Cn1cnnn1)Oc1cc(-c2cnc(Nc3cn(C4CCCCC4O)nc3C(F)(F)F)nc2)ccc1Cl (some centres unmarked) [Example 733]
< 10 nM

Please answer likewise for C[C@@H](Cn1cnnn1)Oc1cc(-c2cnc(Nc3cn(C4CCN(C5CCOCC5)CC4)nc3OCC(F)(F)F)nc2)ccc1F [Example 789]
< 10 nM

Please answer likewise for C[C@@H](Cn1cnnn1)Oc1cc(-c2cnc(Nc3cn(CC4(O)CCC4)nc3C(F)(F)F)nc2)ccc1Cl [Example 855]
< 10 nM

Please answer likewise for C[C@@H](Cn1cnnn1)Oc1cc(-c2cnc(Nc3cn([C@H]4CC[C@H](N5CCOCC5)CC4)nc3OCC(F)(F)F)nc2)ccc1F [Example 813]
< 10 nM

Please answer likewise for C[C@@H](Cn1cnnn1)Oc1cc(-c2cnc(Nc3cn([C@H]4CC[C@H](N5CCOCC5)CC4)nc3OCC(F)F)nc2)ccc1F [Example 835]
< 10 nM

Please answer likewise for C[C@@H](Cn1cnnn1)Oc1cc(-c2cnc(Nc3cn(CS(C)(=O)=O)nc3C(F)(F)F)nc2)ccc1Cl [Example 848]
< 10 nM

Please answer likewise for C[C@@H](Cn1cnnn1)Oc1cc(-c2cnc(Nc3cn(CC(C)(C)NC(=O)OC(C)(C)C)nc3C(F)(F)F)nc2)ccc1Cl [Example 860]
≥ 100 nM

Please answer likewise for C[C@@H](Cn1cnnn1)Oc1cc(-c2cnc(Nc3cn([C@H]4CC[C@H](N5[C@@H]6CC[C@H]5COC6)CC4)nc3OCC(F)F)nc2)ccc1Cl [Example 844]
< 10 nM

Please answer likewise for C[C@@H](Cn1cnnn1)Oc1cc(-c2cnc(Nc3cn(CC(O)(C(F)(F)F)C(F)(F)F)nc3C(F)(F)F)nc2)ccc1Cl [Example 744]
≥ 100 nM

Please answer likewise for C[C@@H](Cn1cc(F)cn1)Oc1cc(-c2cnc(Nc3cn(C4CCN(C5CCOCC5)CC4)nc3OCC(F)(F)F)nc2)ccc1C#N [Example 819]
10 to 100 nM

Please answer likewise for CC(=O)NC(C)(C)Cn1cc(Nc2ncc(-c3ccc(Cl)c(O[C@@H](C)Cn4cnnn4)c3)cn2)c(C(F)(F)F)n1 [Example 862]
10 to 100 nM

Please answer likewise for C[C@@H](Cn1cnnn1)Oc1cc(-c2cnc(Nc3cn(C4CCC(=O)CC4)nc3OCC(F)F)nc2)ccc1Cl [Example 800]
< 10 nM

Please answer likewise for C[C@@H](Cn1cnnn1)Oc1cc(-c2cnc(Nc3cn(C4CCN(C5CCC5)CC4)nc3OCCF)nc2)ccc1Cl [Example 826]
< 10 nM
